molecular target: T1, biotinylated hTfR1 (Acro Bio p/n TFR-H82E5) (human, UniProt P02786 89-760, biotinylated; site not stated); assay: BLI, Octet RH16, biotinylated TfR1 on streptavidin sensor; Fab-siRNA conjugate
T1 construct: Bought reagent of the BLI assay
T1 sequence (P02786 89-760 limits assumed): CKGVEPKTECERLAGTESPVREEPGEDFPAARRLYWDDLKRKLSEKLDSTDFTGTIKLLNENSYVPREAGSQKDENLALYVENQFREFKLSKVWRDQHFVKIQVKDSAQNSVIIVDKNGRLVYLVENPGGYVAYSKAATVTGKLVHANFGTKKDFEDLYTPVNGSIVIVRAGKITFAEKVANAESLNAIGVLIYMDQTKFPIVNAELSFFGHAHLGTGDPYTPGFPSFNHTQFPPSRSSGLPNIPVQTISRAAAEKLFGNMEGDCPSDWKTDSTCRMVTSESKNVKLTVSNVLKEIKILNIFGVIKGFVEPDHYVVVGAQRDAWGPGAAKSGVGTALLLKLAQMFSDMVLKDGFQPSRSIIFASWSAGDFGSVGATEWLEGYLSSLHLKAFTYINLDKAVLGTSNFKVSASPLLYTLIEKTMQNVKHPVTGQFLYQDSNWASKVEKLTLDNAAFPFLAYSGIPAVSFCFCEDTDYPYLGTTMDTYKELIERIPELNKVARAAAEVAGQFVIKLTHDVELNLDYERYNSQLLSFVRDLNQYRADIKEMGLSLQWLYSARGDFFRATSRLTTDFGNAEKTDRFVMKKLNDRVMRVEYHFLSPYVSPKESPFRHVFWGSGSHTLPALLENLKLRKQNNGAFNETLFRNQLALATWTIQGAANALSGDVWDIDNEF
quantity: kon (M⁻¹ s⁻¹)
Hi! Could you send only the number? It should be in M⁻¹ s⁻¹, unit omitted.

Some binders with recorded kon:
binder	unit_descriptor	experimental_result
Fab0062-siRNA conjugate (Fab, V domains shown, siRNA-linker on a reduced cysteine; chain and residue not stated, also called Fab0062 (BLI conjugate columns)) VH: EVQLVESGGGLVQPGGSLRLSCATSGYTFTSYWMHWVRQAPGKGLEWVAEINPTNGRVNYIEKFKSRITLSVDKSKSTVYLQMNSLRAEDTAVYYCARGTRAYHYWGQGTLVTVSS VL: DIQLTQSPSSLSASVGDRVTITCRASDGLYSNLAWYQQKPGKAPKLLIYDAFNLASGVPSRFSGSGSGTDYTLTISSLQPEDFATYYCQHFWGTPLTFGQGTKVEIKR	M⁻¹ s⁻¹	275000
Fab0065-siRNA conjugate (Fab, V domains shown, siRNA-linker on a reduced cysteine; chain and residue not stated, also called Fab0065 (BLI conjugate columns)) VH: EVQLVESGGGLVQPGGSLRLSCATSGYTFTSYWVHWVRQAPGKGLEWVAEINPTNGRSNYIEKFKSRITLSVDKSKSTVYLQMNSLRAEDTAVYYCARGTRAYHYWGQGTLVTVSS VL: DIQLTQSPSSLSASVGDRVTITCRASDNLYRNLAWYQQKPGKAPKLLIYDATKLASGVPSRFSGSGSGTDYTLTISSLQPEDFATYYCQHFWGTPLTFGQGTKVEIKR	M⁻¹ s⁻¹	310000
Fab0060-siRNA conjugate (Fab, V domains shown, siRNA-linker on a reduced cysteine; chain and residue not stated, also called Fab0060 (BLI conjugate columns)) VH: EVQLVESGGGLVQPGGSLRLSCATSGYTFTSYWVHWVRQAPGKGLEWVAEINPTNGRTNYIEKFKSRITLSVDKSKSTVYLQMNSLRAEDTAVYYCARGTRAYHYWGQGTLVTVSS VL: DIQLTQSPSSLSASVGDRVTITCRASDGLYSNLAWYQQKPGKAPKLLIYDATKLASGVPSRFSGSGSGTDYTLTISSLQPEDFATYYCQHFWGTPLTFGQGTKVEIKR	M⁻¹ s⁻¹	298000
Fab0068-siRNA conjugate (Fab, V domains shown, siRNA-linker on a reduced cysteine; chain and residue not stated, also called Fab0068 (BLI conjugate columns)) VH: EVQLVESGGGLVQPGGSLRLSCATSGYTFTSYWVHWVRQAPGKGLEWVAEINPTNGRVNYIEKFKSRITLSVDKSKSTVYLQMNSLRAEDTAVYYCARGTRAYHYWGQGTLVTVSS VL: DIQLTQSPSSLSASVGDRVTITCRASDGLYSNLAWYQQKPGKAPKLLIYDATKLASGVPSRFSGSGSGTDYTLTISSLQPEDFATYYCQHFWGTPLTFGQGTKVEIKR	M⁻¹ s⁻¹	256000

Attention now turns to another entry.
Ask: # get_value(readout='kon', item= Fab0073-siRNA conjugate (Fab, V domains shown, siRNA-linker on a reduced cysteine; chain and residue not stated, also called Fab0073 (BLI conjugate columns)) VH: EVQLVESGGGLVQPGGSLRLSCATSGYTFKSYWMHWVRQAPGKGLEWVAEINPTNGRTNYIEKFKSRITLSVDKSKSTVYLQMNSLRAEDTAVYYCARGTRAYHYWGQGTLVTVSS VL: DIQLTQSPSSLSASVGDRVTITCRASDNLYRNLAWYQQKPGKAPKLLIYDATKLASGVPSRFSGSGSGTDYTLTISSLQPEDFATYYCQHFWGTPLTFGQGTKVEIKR )
Reply: 292000
